# pKi annotations
# STUDY_SYSTEM: adrenergic receptor α1A (Rattus norvegicus, UniProt P43140)
# Construct: membrane species from rat submaxillary glands (rat of Wistar breed) are prepared; from tissue; host or cells: rat (Wistar) submaxillary gland membranes
# Sequence (P43140 whole entry): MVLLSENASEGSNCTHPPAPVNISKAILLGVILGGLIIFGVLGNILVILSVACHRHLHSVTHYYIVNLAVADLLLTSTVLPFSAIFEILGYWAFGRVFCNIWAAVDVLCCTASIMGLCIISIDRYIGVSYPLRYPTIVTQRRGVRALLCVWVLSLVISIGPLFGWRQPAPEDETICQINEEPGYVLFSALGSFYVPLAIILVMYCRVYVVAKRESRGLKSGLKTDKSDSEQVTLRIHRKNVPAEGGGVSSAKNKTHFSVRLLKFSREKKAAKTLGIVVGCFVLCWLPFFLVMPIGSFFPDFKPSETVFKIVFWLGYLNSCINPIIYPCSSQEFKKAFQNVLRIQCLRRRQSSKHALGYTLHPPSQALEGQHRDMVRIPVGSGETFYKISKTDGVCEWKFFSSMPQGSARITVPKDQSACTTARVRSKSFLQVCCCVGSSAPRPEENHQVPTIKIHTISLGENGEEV
# MEASUREMENT_NOTES: radioligand binding to adrenergic receptor α1A ([3H] Prazosin)
pKi: −log10 of the molar value.
PARAMETER_MEASURED: pKi

[
  {
    "MOLECULE": "CN1CCc2c(c3ccccc3n2Cc2ccccc2)C1",
    "PARAMETER_MEASURED": "pKi",
    "ENDPOINT_RESULT": 6.69
  },
  {
    "MOLECULE": "Cc1ccc(CCn2c3c(c4cc(C)ccc42)CN(C)CC3)cc1",
    "PARAMETER_MEASURED": "pKi",
    "ENDPOINT_RESULT": 7.72
  },
  {
    "MOLECULE": "Cc1ccc2c(c1)c1c(n2CCc2ccc(C)nc2)CCN(C)C1.Cl.Cl [1.1.2(4-2)•2HCl]",
    "PARAMETER_MEASURED": "pKi",
    "ENDPOINT_RESULT": 7.26
  },
  {
    "MOLECULE": "Cc1ccc2c(c1)c1c(n2CCc2ccccn2)CCN(C)C1.Cl.Cl [1.1.2(2-3)•2HCl]",
    "PARAMETER_MEASURED": "pKi",
    "ENDPOINT_RESULT": 6.74
  }
]

----------
Recorded measurements of Ki, one per entry
# STUDY_SYSTEM: adrenergic receptor α1B (Rattus norvegicus, UniProt P15823)
# Sequence (P15823 1-515): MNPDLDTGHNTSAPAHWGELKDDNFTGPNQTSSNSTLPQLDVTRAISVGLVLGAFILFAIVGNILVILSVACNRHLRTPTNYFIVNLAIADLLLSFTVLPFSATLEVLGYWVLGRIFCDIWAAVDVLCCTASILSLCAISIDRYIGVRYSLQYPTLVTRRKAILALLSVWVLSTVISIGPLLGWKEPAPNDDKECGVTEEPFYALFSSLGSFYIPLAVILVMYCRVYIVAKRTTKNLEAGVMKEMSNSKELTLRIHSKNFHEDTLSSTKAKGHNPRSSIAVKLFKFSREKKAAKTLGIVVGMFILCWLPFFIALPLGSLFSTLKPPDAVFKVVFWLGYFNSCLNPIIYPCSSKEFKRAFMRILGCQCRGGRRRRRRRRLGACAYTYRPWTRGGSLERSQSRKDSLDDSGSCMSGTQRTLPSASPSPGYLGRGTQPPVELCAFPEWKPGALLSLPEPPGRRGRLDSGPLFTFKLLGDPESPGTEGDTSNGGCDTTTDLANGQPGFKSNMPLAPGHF

[
  {
    "MOLECULE": "Cc1ccc2c(c1)c1c(n2CCc2ccccn2)CCN(C)C1.Cl.Cl [1.1.2(2-3)•2HCl]",
    "Ki, nM": 26
  },
  {
    "MOLECULE": "Cc1ccc2c(c1)c1c(n2CCc2ccc(C)nc2)CCN(C)C1.Cl.Cl [1.1.2(4-2)•2HCl]",
    "Ki, nM": 48
  },
  {
    "MOLECULE": "CN1CCc2c(c3ccccc3n2Cc2ccccc2)C1",
    "Ki, nM": 872
  }
]

----------
# STUDY_SYSTEM: human α2A receptor (Homo sapiens)
# Construct: expressed in transfected cells; host or cells: Sf9
# Sequence (P08913 whole entry): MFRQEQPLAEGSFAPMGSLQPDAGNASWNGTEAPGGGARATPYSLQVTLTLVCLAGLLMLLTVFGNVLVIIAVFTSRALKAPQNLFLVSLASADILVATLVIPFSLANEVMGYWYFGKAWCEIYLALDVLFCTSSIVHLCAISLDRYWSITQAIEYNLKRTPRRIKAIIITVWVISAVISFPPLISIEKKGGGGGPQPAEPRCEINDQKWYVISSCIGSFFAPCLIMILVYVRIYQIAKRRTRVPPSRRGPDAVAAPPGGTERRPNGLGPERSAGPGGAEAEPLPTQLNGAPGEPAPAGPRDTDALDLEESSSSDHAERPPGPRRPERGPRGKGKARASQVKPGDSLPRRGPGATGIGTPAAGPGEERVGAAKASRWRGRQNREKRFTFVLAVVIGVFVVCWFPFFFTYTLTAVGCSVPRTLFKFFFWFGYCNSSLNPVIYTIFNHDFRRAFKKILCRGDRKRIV
# MEASUREMENT_NOTES: radioligand binding to adrenergic receptor α2A ([3H] MK-912)
# DETAILS: 10 μM ligand

[
  {
    "MOLECULE": "CN1CCc2c(c3ccccc3n2Cc2ccccc2)C1.Cl [1.9(1)•HCl]",
    "α-Adrenoceptor α2A, % inhibition, %": 100
  },
  {
    "MOLECULE": "Cc1ccc2c(c1)[C@H]1CN(C)CCC[C@@H]1N2CCc1cccnc1 [1.6.2(10)•3HCl]",
    "α-Adrenoceptor α2A, % inhibition, %": 92
  },
  {
    "MOLECULE": "Cc1ccc2c(c1)c1c(n2CCc2cccnc2)CCCN(C)C1.Cl.Cl [1.2.2(3-2)•2HCl]",
    "α-Adrenoceptor α2A, % inhibition, %": 71
  },
  {
    "MOLECULE": "Cc1ccc2c(c1)[C@@H]1CN(C)CCC[C@@H]1N2CCc1ccc(C)nc1.Cl.Cl.Cl (relative stereo) [1.6.1(2)•3HCl]",
    "α-Adrenoceptor α2A, % inhibition, %": 82
  },
  {
    "MOLECULE": "Cc1ccc2c(c1)c1c(n2CCc2ccncc2)CCCN(C)C1",
    "α-Adrenoceptor α2A, % inhibition, %": 74
  }
]
